target: IDH1 R132H (Homo sapiens, UniProt O75874, R132H); experiment: IDH1 R132H enzymatic assay (NADPH depletion coupled to diaphorase/resazurin); format: biochemical; details: IDH1 R132H enzymatic inhibition, IC50 class
Sequence (O75874 whole entry R132H): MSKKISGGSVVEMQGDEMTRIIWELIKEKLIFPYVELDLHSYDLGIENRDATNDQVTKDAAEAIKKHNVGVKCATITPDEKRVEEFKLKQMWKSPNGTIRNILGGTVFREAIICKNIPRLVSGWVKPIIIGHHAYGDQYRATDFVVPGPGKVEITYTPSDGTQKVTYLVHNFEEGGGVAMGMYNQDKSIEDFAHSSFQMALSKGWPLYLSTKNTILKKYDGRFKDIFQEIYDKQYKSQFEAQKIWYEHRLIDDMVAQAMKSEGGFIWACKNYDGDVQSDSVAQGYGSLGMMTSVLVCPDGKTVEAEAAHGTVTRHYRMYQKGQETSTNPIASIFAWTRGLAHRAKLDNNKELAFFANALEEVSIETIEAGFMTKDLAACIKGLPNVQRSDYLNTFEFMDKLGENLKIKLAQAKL
Readout: IC50

Example results:
- Smiles representation: "COc1cccc(OC)c1-n1c2c(cc(-c3nc(-c4ccc(Cl)cc4)cs3)c1=O)C(=O)CC(C)(C)C2"
  Readout: "IC50"
  Observed result: "1000 to 5000 nM"
- Smiles representation: "COc1ccccc1-n1c(C=C(C)C)c(C(=O)N2CCNCC2)cc(-c2nc(-c3ccc(Cl)cc3)cs2)c1=O"
  Readout: "IC50"
  Observed result: "< 300 nM"
- Smiles representation: "CCc1cccc(CC)c1-n1c(CC(C)C)c(C(=O)NC(C)(C)CO)cc(-c2nc(-c3ccc(Cl)cc3)cs2)c1=O"
  Readout: "IC50"
  Observed result: "300 to 1000 nM"

Proceed to the following item.
Inquiry: Reported IC50, compound CCc1cccc(CC)c1-n1c(C)c(C(=O)NCCN)cc(-c2nc(-c3ccc(Cl)cc3)cs2)c1=O : ____
Reply text: 300 to 1000 nM
